B1: RAD51 (parent)
chain: APKKELINIKGISEAKADKILAEA

# Variants of: B1
# TEST_DESCRIPTION: protein stability index of a GFP-peptide fusion (GPS, HEK-293T) (PSI 1-6); higher = more stable;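 further: lentivirally expressed fusions sorted by FACS into six bins by GFP to DsRed ratio, PSI derived from sequencing read proportions per bin multiplied by bin number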
# STUDY_CONDITIONS: c terminus: a fixed tail appended
Would you mind labelling by protein stability index? At or over 4 is true, under is false.

1) APKKVLINIKGISEAKADKILAEA [E5V] | false
2) APKAELINIKGISEAKADKILAEA [K4A] | true
3) APKKELINIKGISEAKADKKLAEA [I20K] | true

Query: Is it the case that APKKELFNIKGISEAKADKILAEA [I7F] has protein stability index reaching or exceeding 4?
Reply: false

Query: Does the reported protein stability index for AKKKELINIKGISEAKADKILAEA [P2K] fall at or above the 4 mark?
Reply: true

Query: Threshold query (protein stability index >= 4) on APKKELINWKGISEAKADKILAEA [I9W]
Reply: true

Query: Confirm if protein stability index reported for the variant APKKELINIKGISEALADKILAEA [K16L] is 4 or above.
Reply: false

Query: Record APKKEAINIKGISEAKADKILAEA [L6A] ; criterion: protein stability index no lower than 4. Met?
Reply: true

Query: Textbook exercise: given the entry APKKFLINIKGISEAKADKILAEA [E5F] , state whether its protein stability index is greater than or equal to 4.
Reply: false

Query: Is protein stability index for APKKILINIKGISEAKADKILAEA [E5I] at or above 4?
Reply: false

Cited source for all entries: the supplement of paper PMC10567573
